system: MS2 coat protein; test: apparent Kd, MS2 coat protein; higher = weaker binding; RNA-MaP array; settings: ligand present: tryptophan; designed as: ON switch for tryptophan
Lab note: compare apparent Kd against 30 nM. Equal or greater, write MET. Smaller, write NOT MET.

CAGUCUCUAGCGGCCGCCACUGUUCUGCUGGUGCUGCUGAACGAACAUGAGGAUCACCCAUGUCUCAGGACCGGGCUUCAGACUC : NOT MET
GCAUCAUGAACGGCCGCCACUAAGGAAUGAGCGGCUCUUGCGAUACAUGAGGAUCACCCAUGUCUUAGGACCGGGUUCAUUGUCA : MET
CCUCCUUGUACGGCCGCCACUGCAUCUCUGGAUACUCCGAUAAUACAUGAGGAUCACCCAUGUUACAGGACCGGGUAUAUAUUAC : NOT MET
CCCAACAUGAGGAUCACCCAUGUUCCGGGUCGAGGACCGGUACGGCCGCCACUCGGUAUGAUGGGUGUGCAGCGUAUCUGCACCA : NOT MET

Would you kindly look at the next entry?
Check the entry `CUAAGAGUUACGGCCGCCACUAGUUGGGAUCCGCCCGUAAAAUCACAUGAGGAUCACCCAUGUCCUAGGACCGGGUAAUCGCAUU` : does apparent Kd equal or exceed 30 nM?
MET

---

test system: MS2 coat protein; assay: apparent Kd, MS2 coat protein; higher = weaker binding; RNA-MaP array; tryptophan 2.4 mM where present; details: designed as: ON switch for tryptophan; no ligand
For each of the sequences below, state its apparent Kd.

Take a look at these entries with their results.
AAACAUGAGGAUCACCCAUGUUGAGGAUCACGAGGACCGGUACGGCCGCCACUCGACAUGAGGAUCACCCAUGUGAGGAUCACCC : 175 nM
GCGGAAUAAUCGGCCGCCACUAUGAUAUAGGAAACUAUAACAUGAGGAUCACCCAUGUAUCCUCAUAGGACCGGGAUUAAAACGC : 105 nM
GGUUACUCUACGGCCGCCACUGAUUAAUUAUAAACCUGUACAUAAACAUGAGGAUCACCCAUGUACAGGACCGGGUAGUGUAACC : 37.8 nM

// each sequence listed below needs its apparent Kd
1. AGCAACUAGUCGGCCGCCACUCAUAUUACAUGAGGAUCACCCAUGUAUACAUGGUUGUUAUAUUUGAGGACCGGGACAGUUGCAU
2. GGGUACAUCGCGGCCGCCACUUAUGUAAAUACAUGAGGAUCACCCAUGUCGAUGGAGACAUCGGAGAGGACCGGGUGAUGUACCG
3. ACGUAGAAGUCGGCCGCCACUGAUUUCAUGUUCAACAUGAGGAUCACCCAUGUACCUUAUGUUAACAGGACCGGGACGUAUACGA
4. UUACCGUAAGGUAUACCGGUCCACAAUAAUCGAGGACCGGUACGGCCGCCACUCGAUGUGUGAUCACAUGAGGAUCACCCAUGUA
5. UGGUACUAGGCGGCCGCCACUGGGUGAUACAUGAGGAUCACCCAUGUUUAAUGCCGAGAGGCAACUAGGACCGGGCCUAGUACAU
6. CAGGCUAGGACGGCCGCCACUGUGGCUACGGUACAUGAGGAUCACCCAUGUUUGUGGUUGAUCUACAGGACCGGGUCCUGACACG
7. UUUAUAUAGACGGCCGCCACUGGAAUUAAUACAUGAGGAUCACCCAUGUAUAGAGAAUAAUAAUACAGGACCGGGUCUUCAUGAU
8. UAACAUGAGGAUCACCCAUGUUUGAAGAAACGAGGACCGGUACGGCCGCCACUCGACGAGUGGAUGAAUAGUGGGCUUGUGUGCU

["70.4 nM", "36.1 nM", "298 nM", "265 nM", "150 nM", "132 nM", "29.4 nM", "13.7 nM"]

// each sequence listed below needs its apparent Kd
1. AAAUAAACCUCGGCCGCCACUCGCCAUGAGGAUCACCCAUGUAACAUGAGGAUCACCCAUGUACAGAGGACCGGGAGGUCCUAGU
2. GACGCAUGAGUUGGAACAGCUCAUGGGUCGCGAGGACCGGUACGGCCGCCACUCGGCUGUACAUGAGGAUCACCCAUGUCAGGGU
3. UGUCAGCGAAAGUUGACAUGUCUUACCGGUCGAGGACCGGUACGGCCGCCACUCGAUCUCUCGCACAUGAGGAUCACCCAUGUUG

73 nM
279 nM
21.4 nM

Reference source for all entries: the EternaBench riboswitch data
